B1: Cold shock protein CspB, residues 1 to 66; numbered along this chain, P41016 (parent)
chain: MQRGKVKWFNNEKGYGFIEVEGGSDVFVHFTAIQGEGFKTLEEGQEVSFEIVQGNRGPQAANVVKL

variants of: B1; assay: abundance fitness (aPCA) (normalised: wild type 0, dead -1); higher = more abundant; growth selection in yeast, the domain comes from the species named; details: Bacillus caldolyticus
MEASURED ATTRIBUTE: abundance fitness
Please reply with the number alone, leaving off any unit.

Known abundance fitness results, listed for orientation:
Ask: What value of abundance fitness has been reported for the following variant? E21G
Result: 0.02

Ask: What value of abundance fitness has been reported for the following variant? E21V
Result: 0.013

Ask: What value of abundance fitness has been reported for the following variant? G4Q
Result: -0.428

Ask: What value of abundance fitness has been reported for the following variant? G23S
Result: 0.011

Ask: What value of abundance fitness has been reported for the following variant? F38V
Result: -0.044

More entries:
Ask: What value of abundance fitness has been reported for the following variant? T40I
Result: -0.032

Ask: What value of abundance fitness has been reported for the following variant? K7Q
Result: -0.07

Ask: What value of abundance fitness has been reported for the following variant? E19D
Result: 0.006
